# system: PfCRT^Ecu1110 (Plasmodium falciparum, UniProt Q9N623, A220S/I356L/K76T/N326D)
# Sequence (Q9N623 whole entry A220S/I356L/K76T/N326D): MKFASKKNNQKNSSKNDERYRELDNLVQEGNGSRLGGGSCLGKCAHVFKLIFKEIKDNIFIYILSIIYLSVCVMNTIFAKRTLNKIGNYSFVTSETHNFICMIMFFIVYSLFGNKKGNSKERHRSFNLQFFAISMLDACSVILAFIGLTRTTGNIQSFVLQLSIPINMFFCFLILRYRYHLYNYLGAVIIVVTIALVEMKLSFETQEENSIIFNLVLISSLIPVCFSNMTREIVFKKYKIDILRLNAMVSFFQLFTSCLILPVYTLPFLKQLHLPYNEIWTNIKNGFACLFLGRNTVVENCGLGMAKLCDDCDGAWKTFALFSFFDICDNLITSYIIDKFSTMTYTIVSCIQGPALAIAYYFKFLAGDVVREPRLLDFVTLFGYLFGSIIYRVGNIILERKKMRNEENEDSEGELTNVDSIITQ
# method.description: [3H]CQ uptake into Xenopus oocytes, cis-inhibition by unlabelled solute
# Assay type: cell-based
# reported.conditions: [test solute] = 1 mM; PfCRTEcu1110 oocytes; background [3H]CQ accumulation subtracted; normalised to oocyte type control
# cutoff 40 % PfCRTEcu1110 control applies to PfCRT-mediated [3H]CQ transport, cis-inhibition (% PfCRTEcu1110 control); >= gives Yes, < gives No

Problem: Does HAGEYG [HG-6] have a reported PfCRT-mediated [3H]CQ transport, cis-inhibition (% PfCRTEcu1110 control) of at least 40 % PfCRTEcu1110 control?
Solution: No

Problem: Check if PfCRT-mediated [3H]CQ transport, cis-inhibition (% PfCRTEcu1110 control) >= 40 % PfCRTEcu1110 control (inclusive). Item: VDEVGG [VG-6]
Solution: Yes

Problem: API: above_or_equal(metric=PfCRT-mediated [3H]CQ transport, cis-inhibition (% PfCRTEcu1110 control), cutoff=40 % PfCRTEcu1110 control) for item LHVDPENF [LF-8]
Solution: No

Problem: Determine whether measured PfCRT-mediated [3H]CQ transport, cis-inhibition (% PfCRTEcu1110 control) meets or exceeds 40 % PfCRTEcu1110 control for EFTPPVQ [EQ-7]
Solution: No

Problem: Does the substance VVYPWTQR [VR-8] have recorded PfCRT-mediated [3H]CQ transport, cis-inhibition (% PfCRTEcu1110 control) that is 40 % PfCRTEcu1110 control or more?
Solution: No

Problem: Hello, I need to know if SHCLLVT [ST-7] has measured PfCRT-mediated [3H]CQ transport, cis-inhibition (% PfCRTEcu1110 control) not below 40 % PfCRTEcu1110 control. Thanks!
Solution: No

Problem: Is PfCRT-mediated [3H]CQ transport, cis-inhibition (% PfCRTEcu1110 control) at least 40 % PfCRTEcu1110 control? Consider EFTPPVQA [EA-8]
Solution: Yes

Problem: Confirm if PfCRT-mediated [3H]CQ transport, cis-inhibition (% PfCRTEcu1110 control) reported for the substance DLHAHKLR [DR-8] is 40 % PfCRTEcu1110 control or above.
Solution: Yes

Problem: Dear colleague, could you confirm whether DMPNALS [DS-7, host-derived peptide upstream of PL-4] has PfCRT-mediated [3H]CQ transport, cis-inhibition (% PfCRTEcu1110 control) at or above 40 % PfCRTEcu1110 control?
Solution: Yes

Problem: Is reported PfCRT-mediated [3H]CQ transport, cis-inhibition (% PfCRTEcu1110 control) greater than or equal to 40 % PfCRTEcu1110 control here: VDPVNFK [VK-7]
Solution: No

Problem: Quick check: does LSDLHAHK [LK-8] have PfCRT-mediated [3H]CQ transport, cis-inhibition (% PfCRTEcu1110 control) greater than or equal to 40 % PfCRTEcu1110 control?
Solution: Yes

Problem: Reported PfCRT-mediated [3H]CQ transport, cis-inhibition (% PfCRTEcu1110 control) at or above 40 % PfCRTEcu1110 control? HVDPEN [HN-6]
Solution: Yes

Problem: Given the entry FSDGLA [FA-6] , answer whether its PfCRT-mediated [3H]CQ transport, cis-inhibition (% PfCRTEcu1110 control) meets or surpasses 40 % PfCRTEcu1110 control.
Solution: Yes

Problem: Given DTSLKPIS [DS-8] , state whether its PfCRT-mediated [3H]CQ transport, cis-inhibition (% PfCRTEcu1110 control) is at least 40 % PfCRTEcu1110 control.
Solution: Yes

Problem: Could you tell me if the measured PfCRT-mediated [3H]CQ transport, cis-inhibition (% PfCRTEcu1110 control) of PHFDLS [PS-6] reaches 40 % PfCRTEcu1110 control or more?
Solution: No

Problem: Is PfCRT-mediated [3H]CQ transport, cis-inhibition (% PfCRTEcu1110 control) at least 40 % PfCRTEcu1110 control? Consider DPENFR [DR-6]
Solution: No

Problem: Item VLSPAD [VD-6] with PfCRT-mediated [3H]CQ transport, cis-inhibition (% PfCRTEcu1110 control) of 40 % PfCRTEcu1110 control or above?
Solution: Yes

Problem: Test whether the substance HVDPENFRL [HL-9] records PfCRT-mediated [3H]CQ transport, cis-inhibition (% PfCRTEcu1110 control) of 40 % PfCRTEcu1110 control or higher.
Solution: No

Problem: Form field: PfCRT-mediated [3H]CQ transport, cis-inhibition (% PfCRTEcu1110 control) at least 40 % PfCRTEcu1110 control? Entry: FPHFDLS [FS-7]
Solution: No

Problem: Given the entry HVDDMP [HP-6] , answer whether its PfCRT-mediated [3H]CQ transport, cis-inhibition (% PfCRTEcu1110 control) meets or surpasses 40 % PfCRTEcu1110 control.
Solution: No

Problem: I'd appreciate it if you could say whether YFPHFDLS [YS-8] has PfCRT-mediated [3H]CQ transport, cis-inhibition (% PfCRTEcu1110 control) at least equal to 40 % PfCRTEcu1110 control.
Solution: No

Problem: Check this substance for PfCRT-mediated [3H]CQ transport, cis-inhibition (% PfCRTEcu1110 control) at or above 40 % PfCRTEcu1110 control: VHLTPEEK [VK-8]
Solution: Yes

Problem: Say whether HVDDMPN [HN-7] shows PfCRT-mediated [3H]CQ transport, cis-inhibition (% PfCRTEcu1110 control) of 40 % PfCRTEcu1110 control or more.
Solution: No

Problem: Hi, just wondering whether HVDPENF [HF-7] shows PfCRT-mediated [3H]CQ transport, cis-inhibition (% PfCRTEcu1110 control) of 40 % PfCRTEcu1110 control or higher.
Solution: No

Problem: Please check the record LSFPTTK [LK-7] and state if its PfCRT-mediated [3H]CQ transport, cis-inhibition (% PfCRTEcu1110 control) is at or above 40 % PfCRTEcu1110 control.
Solution: No
